Task for the reader: assign each of the following compounds its reported pEC50.
Assayed System: human GPR52 (Homo sapiens, UniProt Q9Y2T5)
Sequence (Q9Y2T5 whole entry): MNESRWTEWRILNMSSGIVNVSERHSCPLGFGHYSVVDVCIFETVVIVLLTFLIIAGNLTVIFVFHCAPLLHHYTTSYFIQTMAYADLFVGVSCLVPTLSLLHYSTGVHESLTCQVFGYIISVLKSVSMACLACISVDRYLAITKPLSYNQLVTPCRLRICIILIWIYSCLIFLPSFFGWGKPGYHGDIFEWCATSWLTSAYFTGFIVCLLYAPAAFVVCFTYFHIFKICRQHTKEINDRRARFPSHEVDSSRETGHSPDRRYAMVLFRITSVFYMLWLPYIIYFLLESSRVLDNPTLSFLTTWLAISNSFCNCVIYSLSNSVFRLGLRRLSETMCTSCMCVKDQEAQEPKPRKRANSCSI
Protocol Notes: GPR52 Agonist Functional cAMP Assay;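 note: HEKf cells transduced with GPR52 BacMam for 24 h, 2000 per well, exposed to compounds 30 min at 37° C with 0.5 mM IBMX, cAMP read by HTRF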
Stated Conditions: pEC50 average, HEKf cells infected with human GPR52 BacMam virus; cAMP HTRF; 30 min at 37° C.
The value called pEC50 is obtained by taking minus log10 of the concentration in mol/L.

Inquiry: Bench note: what pEC50 did Cc1cc(Cc2ccnc(-n3ncc4c3CCN(C)C4=O)c2)cnc1F show?
Reply text: 6.70

Inquiry: Report pEC50 for O=C1NCCc2c1cnn2-c1ccnc(C(O)c2cc(F)cc(C(F)(F)F)c2)c1 (single isomer, unassigned) [Example 36 Isomer 2] please.
Reply text: 6.60

Inquiry: What pEC50 value was documented for this compound, O=C1NCCc2c1cnn2-c1ccnc(Cc2ccc(OC(F)F)c(F)c2)c1 ?
Reply text: 6.90

Inquiry: What does the record list as pEC50 for CC1Cc2c(cnn2-c2ccnc(Cc3cc(F)cc(C(F)(F)F)c3)c2)C(=O)N1 (stereo not shown) [Example 40] ?
Reply text: 7.00
